Value source: patent US20250230251A1

- TARGET ENTITY: T1, cyIL-18Rβ-HisAvi (cynomolgus monkey)
- T1 construct: Soluble analyte in SPR; also called cyno IL-18Rβ; cynomolgus monkey IL-18Rβ
- T1 chain: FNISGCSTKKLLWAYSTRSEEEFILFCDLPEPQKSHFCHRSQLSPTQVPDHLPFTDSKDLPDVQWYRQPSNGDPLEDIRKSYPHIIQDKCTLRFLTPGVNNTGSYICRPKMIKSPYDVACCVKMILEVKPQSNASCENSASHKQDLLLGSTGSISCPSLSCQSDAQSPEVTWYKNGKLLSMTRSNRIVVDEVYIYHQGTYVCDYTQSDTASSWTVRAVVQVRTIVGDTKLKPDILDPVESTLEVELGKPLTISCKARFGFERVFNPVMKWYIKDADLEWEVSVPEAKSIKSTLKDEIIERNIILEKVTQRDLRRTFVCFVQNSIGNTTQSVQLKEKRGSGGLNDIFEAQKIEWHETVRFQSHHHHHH
- ASSAY NAME: SPR T200, mAb on anti-hFc, 37C, pH 6
REPORTED PROPERTY: koff (s⁻¹)
Give the value in s⁻¹ but do not write s⁻¹ after it.

Look up koff: P21 (antibody, human IgG1, kappa, V domains shown, Human IgG) VH: QVQLQQSGPGLVKPSETLSLTCTVSGGSISNYYWTWIRQPPGKGLEWIGYISDSGSTNYNPSLKSRVTISVDTSKNQFSLKLSSVTAADTAVYYCARETIVVRGFYFYVMDVWGQGTTVTVSS VL: AIQLTQSPSSLSASVGDRVTITCRASQGISSALAWYQQRPGKAPKLLIYDASNWESGVPSRFSGSGSGTDFTLTISSLQPEDFATYYCQQFNSYPWTFGQGTKVEIKR
0.002
